System: Pseudomonas aeruginosa
assay: In vitro antibacterial activity against Pseudomonas aeruginosa 1592E by agar dilution method using Mueller-Hinton
Type: functional
reported_property: MIC (µg/mL)
The response must be a number in µg/mL with no trailing unit.

Challenge: Provide value of MIC for this record tested with Pseudomonas aeruginosa: C[C@@H](O)[C@H]1C(=O)N2C(C(=O)O)=C(S[C@@H]3CN[C@H](CSc4nnnn4CCO)C3)[C@H](C)[C@H]12
Response given: 1.56

Challenge: Entry to check: CNC(=O)CCn1nnnc1SC[C@@H]1C[C@H](SC2=C(C(=O)O)N3C(=O)[C@H]([C@@H](C)O)[C@H]3[C@H]2C)CN1
Response given: 1.56

Challenge: Repeat with C[C@@H](O)[C@H]1C(=O)N2C(C(=O)O)=C(S[C@@H]3CN[C@H](CSc4nnnn4CC(=O)N(C)C)C3)[C@H](C)[C@H]12
Response given: 3.12

Challenge: Same read-out for C[C@@H](O)[C@H]1C(=O)N2C(C(=O)O)=C(S[C@@H]3CN[C@H](C(=O)N(C)C)C3)[C@H](C)[C@H]12 ?
Response given: 0.195

Challenge: Another molecule to check: C[C@@H](O)[C@H]1C(=O)N2C(C(=O)[O-])=C(S[C@@H]3CN[C@H](CSc4nnnn4CC[N+](C)(C)C)C3)[C@H](C)[C@H]12
Response given: 0.781

Challenge: Lookup C[C@@H](O)[C@H]1C(=O)N2C(C(=O)O)=C(SCCNC=N)C[C@H]12 [IMIPENEM ANHYDROUS]
Response given: 1.56
